- test_target: Lysosomal alpha-glucosidase (Homo sapiens) (UniProt P10253)
- experiment_notes: qHTS Assay for Activators of Human alpha-Glucosidase as a Potential Chaperone Treatment of Pompe Disease; note: potency is the fitted concentration of half-maximal effect; nearly all actives have a fitted effect of over 80% in size
- assay_context: purified enzyme, 4-MU-alpha-glucoside fluorescence, 20 min
Hit rate of the full screen: of about 200,000 compounds, about 720 (0.36%) were called active. About 8% were inconclusive and are not listed. Some of the results follow.
Catalogue of Potency values

molecule: COCCOC(=O)c1c(N)n(Cc2ccco2)c2nc3ccccc3nc12
test_target: Lysosomal alpha-glucosidase (Homo sapiens) (UniProt P10253)
Potency: 35.5 µM (active)

molecule: CC(C)(C)OC(=O)c1c(N)n(Cc2ccco2)c2nc3ccccc3nc12
test_target: Lysosomal alpha-glucosidase (Homo sapiens) (UniProt P10253)
Potency: 35.5 µM (active)

molecule: COCCCn1c(N)c(C(=O)OC(C)COC)c2nc3ccccc3nc21 (stereo unspecified)
test_target: Lysosomal alpha-glucosidase (Homo sapiens) (UniProt P10253)
Potency: 39.8 µM (active)

molecule: COCCCn1c(N)c(C(=O)OCCOC)c2nc3ccccc3nc21
test_target: Lysosomal alpha-glucosidase (Homo sapiens) (UniProt P10253)
Potency: 31.6 µM (active)

molecule: CCCCCn1c(N)c(C(=O)NCCN2CCOCC2)c2nc3ccccc3nc21
test_target: Lysosomal alpha-glucosidase (Homo sapiens) (UniProt P10253)
Potency: 35.5 µM (active)

molecule: CCC(C)OC(=O)c1c(N)n(Cc2cccs2)c2nc3ccccc3nc12 (stereo unspecified)
test_target: Lysosomal alpha-glucosidase (Homo sapiens) (UniProt P10253)
Potency: 35.5 µM (active)

molecule: CN1CCc2c(C#N)c(Cl)nc(Cl)c2C1
test_target: Lysosomal alpha-glucosidase (Homo sapiens) (UniProt P10253)
Potency: 35.5 µM (active)

molecule: COc1ccc(-c2cc(=NCCCCCC(=O)O)c3cc(C)ccc3o2)cc1
test_target: Lysosomal alpha-glucosidase (Homo sapiens) (UniProt P10253)
Potency: 31.6 µM (active)

molecule: O=C(c1cc2c(s1)-c1ccccc1OC2)N1CCC2(CC1)OCCO2
test_target: Lysosomal alpha-glucosidase (Homo sapiens) (UniProt P10253)
Potency: 39.8 µM (active)

molecule: COc1ccc(-c2cc(=NCCC(=O)O)c3cc(C)ccc3o2)cc1
test_target: Lysosomal alpha-glucosidase (Homo sapiens) (UniProt P10253)
Potency: 28.2 µM (active)

molecule: COCCOC(=O)c1c(N)n(Cc2ccccc2)c2nc3ccccc3nc12
test_target: Lysosomal alpha-glucosidase (Homo sapiens) (UniProt P10253)
Potency: 35.5 µM (active)

###

Reported Potency values follow for various compounds
- test_target: Lysosomal alpha-glucosidase (Homo sapiens) (UniProt P10253)
- experiment_notes: qHTS Assay for Activators of Human alpha-Glucosidase as a Potential Chaperone Treatment of Pompe Disease; note: potency is the fitted concentration of half-maximal effect; nearly all actives have a fitted effect of over 80% in size
- assay_context: purified enzyme, 4-MU-alpha-glucoside fluorescence, 20 min
In all, about 200,000 compounds went through this assay and about 720 (0.36%) were called active. Roughly 8% stayed inconclusive and do not appear here. This is one part of the list.
readout_name: Potency

compound: COCCNC(=O)c1c(N)n(Cc2ccco2)c2nc3ccccc3nc12
result: 31.6 µM (active)
--
compound: CCOC(=O)c1c(N)n(Cc2ccc(OC)cc2)c2nc3ccccc3nc12
result: 25.1 µM (active)
--
compound: CCCCn1c(NC(=O)c2ccc(Br)o2)c(C(=O)OCC)c2nc3ccccc3nc21
result: 35.5 µM (active)
--
compound: COP(=O)(OC)c1nc(-c2cccc3ccccc23)oc1NCCc1ccccc1
result: 31.6 µM (active)
--
compound: CC(=O)N1CCC2(CC1)CC(=O)c1cc(OCC(=O)N3CCC4(CC3)OCCO4)ccc1O2
result: 31.6 µM (active)
--
compound: CCOP(=O)(OCC)c1nc(-c2cccc3ccccc23)oc1NCCc1ccc(OC)cc1
result: 31.6 µM (active)
--
compound: COC(=O)c1c(N)n(Cc2ccc(OC)cc2)c2nc3ccccc3nc12
result: 35.5 µM (active)
--
compound: CC(C)CCn1c(N)c(C(=O)OCC2CCCO2)c2nc3ccccc3nc21 (configuration not stated)
result: 31.6 µM (active)
--
compound: CCCCn1c(N)c(C(=O)OCC2CCCO2)c2nc3ccccc3nc21 (configuration not stated)
result: 35.5 µM (active)
--
compound: Nc1c(C(=O)OC2CCCCC2)c2nc3ccccc3nc2n1CC1CCCO1 (configuration not stated)
result: 35.5 µM (active)
--
compound: COCCN1Cc2cc(=O)n3c([nH]c4ccccc43)c2C1=N
result: 31.6 µM (active)
--
compound: COC(=O)c1ccc(C(=O)OC)c(NC(=O)Oc2ccccc2)c1
result: 31.6 µM (active)
